cytotoxicity at 10 µM values, listed per item
Test: Toxicity liver stage against HepG2, at 10uM
Format: cell-based
Set-up: test concentration 10 uM, cell line HepG2-A16-CD81EGFP
Conditions: human, HepG2-A16-CD81EGFP cells; read-out: INHIBITION
PARAMETER_MEASURED: cytotoxicity at 10 µM

>>> print(df.to_string())
                                    compound     parameter_measured  experimental_value
 0  CC(Nc1ccn(Cc2ccccn2)n1)C(=O)NC(C)(C)C (centres undefined)  cytotoxicity at 10 µM              -2.08%
 1          Cc1nn(C)c2c(=O)n(Cc3ccccc3)nnc12  cytotoxicity at 10 µM               5.53%
 2  O=S(=O)(NCC1CCN(c2cnccn2)CC1)c1c(F)cccc1F  cytotoxicity at 10 µM               10.4%
 3        CCOC(=O)CNC(=O)NCc1cccn1Cc1ccccc1F  cytotoxicity at 10 µM              -2.24%
 4  CCS(=O)(=O)N1CCOC2(COCCN(C(C)=O)C2)C1 (centres undefined)  cytotoxicity at 10 µM               15.7%
 5        CC(C)OCCCNC(=O)CC1(Cn2cnnn2)CCCCC1  cytotoxicity at 10 µM               9.18%
 6               COCCN1CCc2ncnc(NC(C)C)c2CC1  cytotoxicity at 10 µM               2.13%
 7  COc1ccc(NC(=O)NCC(O)c2ccccc2F)c(OC)c1 (centres undefined)  cytotoxicity at 10 µM               3.22%
 8       Cc1nc(N2CCN(C)CC2)ncc1C(=O)N1CCCCC1  cytotoxicity at 10 µM              0.305%
 9  Cc1nc(C)n(C2CCCN(C(=O)c3cccc4cn[nH]c34)C2)n1 (centres undefined)  cytotoxicity at 10 µM              -8.86%
10  CN(C)C(=O)c1cc(S(=O)(=O)N2CCCC2Cn2ccnc2)cn1C (centres undefined)  cytotoxicity at 10 µM               12.2%
11  O=C(CCc1ccccc1F)NC1CCCN(c2ccccn2)C1 (centres undefined)  cytotoxicity at 10 µM               2.21%
12  COc1ccc(C)cc1C(=O)N1CCCC(n2nc(C)nc2C)C1 (centres undefined)  cytotoxicity at 10 µM              -5.68%
13  CC(NC(=O)c1cccc[n+]1[O-])C1CC1 (centres undefined)  cytotoxicity at 10 µM               5.31%
14  CC(=O)N1CCC(C)(c2cc(C(=O)NCC3CC3)nc(C)n2)CC1  cytotoxicity at 10 µM               2.87%
15  COCCNCC1(O)CCCN(Cc2ccc(F)c(F)c2)C1=O (centres undefined)  cytotoxicity at 10 µM               3.93%
16   COc1ccc(CCC(=O)NCCN2CCC(c3cccs3)CC2)cc1  cytotoxicity at 10 µM               4.59%
17  CCOC(=O)N1[C@@H](c2ccco2)[C@@H](C(=O)O)C[C@]12CCCCNC2=O  cytotoxicity at 10 µM              -2.98%
18  O=C(c1cc2cccc(F)c2[nH]1)N1C[C@@H](O)[C@H](N2CCOCC2)C1  cytotoxicity at 10 µM             0.0453%
19  C[C@H]1C[C@H]2CN(C(=O)C3=CCCCC3)CC[C@H]2O1  cytotoxicity at 10 µM               4.76%
20  COc1ccc(C(=O)C2CCCN(c3cc(C#N)ccn3)C2)cc1OC (centres undefined)  cytotoxicity at 10 µM             -0.312%
21  COC(=O)c1cc(C(=O)N2CCCCCC2)n(-c2ccccc2)n1  cytotoxicity at 10 µM              -5.33%
22           CC(C)n1cc(S(=O)(=O)N2CCSCC2)cn1  cytotoxicity at 10 µM               6.64%
23  Cc1cc(=O)n(CCNS(=O)(=O)c2ccc(F)c(Cl)c2)cn1  cytotoxicity at 10 µM               1.18%

This collection of values is drawn from ChEMBL document CHEMBL4513216.
